Attribution: patent US12421252B2

Biological target: hERG channel (Homo sapiens)
Construct: expressed in transfected cells
Sequence (Q12809 whole entry): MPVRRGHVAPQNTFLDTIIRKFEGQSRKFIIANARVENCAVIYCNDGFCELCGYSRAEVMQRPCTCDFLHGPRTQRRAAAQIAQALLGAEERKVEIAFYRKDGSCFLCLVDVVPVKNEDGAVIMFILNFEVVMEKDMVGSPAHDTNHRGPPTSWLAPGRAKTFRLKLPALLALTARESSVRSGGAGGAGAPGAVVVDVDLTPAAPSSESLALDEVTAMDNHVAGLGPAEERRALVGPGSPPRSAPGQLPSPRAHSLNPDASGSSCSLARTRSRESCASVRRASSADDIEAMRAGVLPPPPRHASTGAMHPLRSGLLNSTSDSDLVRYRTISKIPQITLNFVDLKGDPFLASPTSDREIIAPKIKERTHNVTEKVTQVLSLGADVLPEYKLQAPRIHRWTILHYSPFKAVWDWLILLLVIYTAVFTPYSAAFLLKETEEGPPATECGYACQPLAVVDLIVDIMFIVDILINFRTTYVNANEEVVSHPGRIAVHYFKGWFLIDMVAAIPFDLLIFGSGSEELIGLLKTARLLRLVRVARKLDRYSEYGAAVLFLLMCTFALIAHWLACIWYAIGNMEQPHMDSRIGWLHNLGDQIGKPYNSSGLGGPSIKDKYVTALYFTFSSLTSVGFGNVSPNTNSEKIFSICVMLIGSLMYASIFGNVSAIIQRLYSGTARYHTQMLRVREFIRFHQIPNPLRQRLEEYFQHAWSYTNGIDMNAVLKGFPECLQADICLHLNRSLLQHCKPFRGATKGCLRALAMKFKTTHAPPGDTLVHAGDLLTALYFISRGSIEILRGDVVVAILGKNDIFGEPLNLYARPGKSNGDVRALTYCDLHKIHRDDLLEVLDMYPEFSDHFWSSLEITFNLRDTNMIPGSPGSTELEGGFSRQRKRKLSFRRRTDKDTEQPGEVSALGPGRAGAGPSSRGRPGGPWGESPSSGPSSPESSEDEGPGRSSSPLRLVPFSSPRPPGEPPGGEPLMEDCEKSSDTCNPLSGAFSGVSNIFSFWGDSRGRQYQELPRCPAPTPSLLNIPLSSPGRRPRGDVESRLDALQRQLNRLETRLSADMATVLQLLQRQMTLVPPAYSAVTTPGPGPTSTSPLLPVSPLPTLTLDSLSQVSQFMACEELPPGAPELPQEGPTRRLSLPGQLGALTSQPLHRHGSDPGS
Experiment: hERG channel inhibition assay (patch-clamp, CHO hERG cells)
Format: cell-based
Conditions: safety ratio
Endpoint Name: hERG IC20/TLR9 IC50
Write the value as a bare number.

These recorded examples may help you get a feel for the data.
compound="C[C@@H]1CN(c2ccc(C#N)c3ncccc23)C[C@H](CN2CCN(c3ccccc3)CC2)O1 [ER-887258, reference compound]" observed=0.3
compound="C[C@@H]1CN(c2ccc(C#N)c3ncccc23)C[C@H](CN2CCN(c3ccccn3)CC2)O1 [ER-888285, reference compound]" observed=0.5
compound="C[C@@H]1CN(c2ccc(C#N)c3ncccc23)C[C@H](CN2CCN(c3ccncc3)CC2)O1 [ER-888286, reference compound]" observed=0.2

**Query** hERG IC20/TLR9 IC50 lookup needed for C[C@@H]1CN(c2ccc(C#N)n3ncc(F)c23)C[C@H](CN2CC3(C2)OCc2cc(N4CC5(CN(C)C5)C4)ccc23)O1 , thanks.
**Result** 220
